# %Inh values compiled below
Test system: MLCK
Construct: gene MYLK3
Settings: concentration: 1 μM,replicates: in singlicate; n = 1;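 further: KINOMEscan kinase panel screen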
Field: numeric (%). Do not append units.

• C[C@@H]1CCN(C(=O)CC#N)C[C@@H]1N(C)c1ncnc2[nH]ccc12 = 0
• C[C@H]1Oc2cc(cnc2N)-c2c(nn(C)c2C#N)CN(C)C(=O)c2ccc(F)cc21 = 0
• CCN(CC)CCOc1ccc(Nc2ncc3cc(-c4c(Cl)cccc4Cl)c(=O)n(C)c3n2)cc1 [SB-601273] = 98.4
• CN(C)CCOc1ccc(-c2cc(-c3c[nH]nc3-c3ccccn3)ccn2)cc1 [GW835314] = 0
• Cc1occc1-c1nc(N)c(OC[C@@H](N)Cc2c[nH]c3ccccc23)cc1-c1cc2c(C)n[nH]c2cn1 [GSK1660450] = 2

Q) Provide one value: measured %Inh of Cl.Cl.NC[C@H](Cc1ccc(C(F)(F)F)cc1)NC(=O)c1cc(Br)c(-c2ccnc3[nH]ccc23)s1 [GSK1487252]
A) 63

Q) Provide one value: measured %Inh of Cc1cc2cn[nH]c2cc1-c1cccc2c(N)c(C(N)=O)nnc12
A) 0

Q) Provide one value: measured %Inh of Cc1ccc(-n2nc(C(C)(C)C)cc2NC(=O)Nc2ccc(OCCN3CCOCC3)c3ccccc23)cc1 [GW839464]
A) 0

---

# %Inh values compiled below
Tested on: EPHB1
Settings: concentration: 1 μM,replicates: in singlicate; n = 1
Field: numeric (%). Do not append units.

Observe how each entry below is paired with its result.
- CC(C)N1C(=O)Cc2cc(Nc3ncc(C(F)(F)F)c(NCc4cccc(S(C)(=O)=O)c4)n3)ccc21: 16
- CCN(CC)CCCCNc1ncc2cc(-c3c(Cl)cccc3Cl)c(NC(=O)NC(C)(C)C)nc2n1: 99.9

Q) Provide one value: measured %Inh of Cc1occc1-c1nc(N)c(OC[C@@H](N)Cc2c[nH]c3ccccc23)cc1-c1cc2c(C)n[nH]c2cn1
A) 24

Q) Provide one value: measured %Inh of CN(C)CCOc1ccc(-c2cc(-c3c[nH]nc3-c3ccccn3)ccn2)cc1
A) 2

Q) Provide one value: measured %Inh of CCN(CC)CCOc1ccc(Nc2ncc3cc(-c4c(Cl)cccc4Cl)c(=O)n(C)c3n2)cc1
A) 99.8

Q) Provide one value: measured %Inh of Cl.Cl.NC[C@H](CC1CCCCC1)NC(=O)c1cc(Br)c(-c2ccnc3[nH]ccc23)s1
A) 17

Q) Provide one value: measured %Inh of Cl.Cl.NC[C@H](Cc1ccc(C(F)(F)F)cc1)NC(=O)c1cc(Br)c(-c2ccnc3[nH]ccc23)s1
A) 12

Q) Provide one value: measured %Inh of Cc1cc(C(=O)Nc2ccc(Oc3ccc4nc(NC(=O)C5CC5)cn4n3)cc2)nn1-c1ccccc1
A) 18

---

Test system: JNK1
Construct: gene MAPK8
Conditions: concentration: 1 μM,replicates: in singlicate; n = 1
%Inh of 30% or higher: met. Under 30%: not met.

As a guide, the following entries are already answered.
• Cl.Cl.Nc1nc(-c2ccc3c(N)n[nH]c3c2)cc(N2CCCC(NC(=O)c3ccccc3)C2)n1 (centres unmarked) = not met
• C=CC(=O)Nc1cc2c(Nc3ccc(F)c(Cl)c3)ncnc2cc1OCCCN1CCOCC1 = met

Q) In plain terms: is recorded %Inh at least 30% for Cl.Oc1cc(-c2nc(-c3ccccc3)[nH]c2-c2ccncc2)ccc1Cl ?
A) met

Q) In plain terms: is recorded %Inh at least 30% for Nc1nc(Nc2ccccc2)cc(-c2ccc3c(N)n[nH]c3c2)n1 ?
A) not met

Q) In plain terms: is recorded %Inh at least 30% for C[C@H]1Oc2cc(cnc2N)-c2c(nn(C)c2C#N)CN(C)C(=O)c2ccc(F)cc21 ?
A) not met

Q) In plain terms: is recorded %Inh at least 30% for Cc1ccc(-n2nc(C(C)(C)C)cc2NC(=O)Nc2ccc(OCCN3CCOCC3)c3ccccc23)cc1 ?
A) not met

Q) In plain terms: is recorded %Inh at least 30% for Cc1n[nH]c2ccc(-c3cc(OC[C@@H](N)Cc4ccccc4)cnc3-c3ccoc3)cc12.O=C(O)C(F)(F)F.O=C(O)C(F)(F)F ?
A) not met

---

# %Inh values compiled below
Test system: MERTK
Settings: concentration: 1 μM,replicates: in singlicate; n = 1
Field: numeric (%). Do not append units.

Observe how each entry below is paired with its result.
• Cc1n[nH]c2ccc(-c3cc(OC[C@@H](N)Cc4ccccc4)cnc3-c3ccoc3)cc12.O=C(O)C(F)(F)F.O=C(O)C(F)(F)F = 9
• Cl.Cl.NC[C@H](CC1CCCCC1)NC(=O)c1cc(Br)c(-c2ccnc3[nH]ccc23)s1 = 47
• COc1ccc(C[C@@H](CN)NC(=O)c2cc(Br)c(-c3ccnc4[nH]ccc34)s2)cc1.Cl.Cl = 70

Okay, now this compound:
Q) Provide one value: measured %Inh of Nc1nc(Nc2ccccc2)cc(-c2ccc3c(N)n[nH]c3c2)n1
A) 26

---

Tested on: FES
Settings: concentration: 1 μM,replicates: in singlicate; n = 1
result type: %Inh (%)
Field: numeric (%). Do not append units.

Observe how each entry below is paired with its result.
- O=C(NCCNc1ccnc(NCc2ccc(F)cc2)n1)c1cc2ccccc2s1: 18
- Nc1nc(Nc2ccccc2)cc(-c2ccc3c(N)n[nH]c3c2)n1: 0
- O=C(NCCCN1CCOC1=O)c1cnc(NCc2cc(Cl)ccc2Cl)nc1NC1CCCC1: 26
- CN(C)CC(O)COc1ccc(Nc2nccc(-c3cnn4nc(N5CCOCC5)ccc34)n2)cc1 (stereo not drawn): 10
- Cl.Oc1cc(-c2nc(-c3ccccc3)[nH]c2-c2ccncc2)ccc1Cl: 48
- Cc1ccc2c(-c3ccncc3)c(-c3ccc(F)cc3)nn2c1.Cl: 0
- Cc1cc2cn[nH]c2cc1-c1cccc2c(N)c(C(N)=O)nnc12: 72
- Cc1cc(C(=O)Nc2ccc(Oc3ccc4nc(NC(=O)C5CC5)cn4n3)cc2)nn1-c1ccccc1: 16
- Cl.Cl.NC[C@H](CC1CCCCC1)NC(=O)c1cc(Br)c(-c2ccnc3[nH]ccc23)s1: 0
- Cc1occc1-c1nc(N)c(OC[C@@H](N)Cc2c[nH]c3ccccc23)cc1-c1cc2c(C)n[nH]c2cn1: 0

Q) Provide one value: measured %Inh of Cc1ccc(-n2nc(C(C)(C)C)cc2NC(=O)Nc2ccc(OCCN3CCOCC3)c3ccccc23)cc1
A) 7

Q) Provide one value: measured %Inh of Cl.Cl.NC[C@H](Cc1ccc(C(F)(F)F)cc1)NC(=O)c1cc(Br)c(-c2ccnc3[nH]ccc23)s1
A) 0

Q) Provide one value: measured %Inh of CC(C)Nc1cc(-c2ccc3c(N)n[nH]c3c2)nc(N)n1
A) 0

Q) Provide one value: measured %Inh of COc1ccc(C[C@@H](CN)NC(=O)c2cc(Br)c(-c3ccnc4[nH]ccc34)s2)cc1.Cl.Cl
A) 0

Q) Provide one value: measured %Inh of C=CC(=O)Nc1cc2c(Nc3ccc(F)c(Cl)c3)ncnc2cc1OCCCN1CCOCC1
A) 0

---

Test system: IKK-epsilon
Construct: gene IKBKE
Settings: concentration: 1 μM,replicates: in singlicate; n = 1
result type: %Inh (%)
Field: numeric (%). Do not append units.

• Cc1n[nH]c2ccc(-c3cc(OC[C@@H](N)Cc4ccccc4)cnc3-c3ccoc3)cc12.O=C(O)C(F)(F)F.O=C(O)C(F)(F)F = 22
• Cl.Oc1cc(-c2nc(-c3ccccc3)[nH]c2-c2ccncc2)ccc1Cl = 0
• CN(C)CC(O)COc1ccc(Nc2nccc(-c3cnn4nc(N5CCOCC5)ccc34)n2)cc1 (centres unmarked) = 58
• Nc1nc(Nc2ccccc2)cc(-c2ccc3c(N)n[nH]c3c2)n1 = 17
• CCn1c(-c2nonc2N)nc2c(C#CC(C)(C)O)nc(OCCN)cc21.Cl.Cl = 0
• CC(C)N1C(=O)Cc2cc(Nc3ncc(C(F)(F)F)c(NCc4cccc(S(C)(=O)=O)c4)n3)ccc21 = 70

Q) Report value only: %Inh, IKK-epsilon, O=C(NCCCN1CCOC1=O)c1cnc(NCc2cc(Cl)ccc2Cl)nc1NC1CCCC1
A) 13

Q) Report value only: %Inh, IKK-epsilon, CN(C)CCOc1ccc(-c2cc(-c3c[nH]nc3-c3ccccn3)ccn2)cc1
A) 0

Q) Report value only: %Inh, IKK-epsilon, Cc1ccc2c(-c3ccncc3)c(-c3ccc(F)cc3)nn2c1.Cl
A) 34

Q) Report value only: %Inh, IKK-epsilon, C[C@@H](Oc1cc(-c2cnn(C3CCNCC3)c2)cnc1N)c1c(Cl)ccc(F)c1Cl
A) 70

Q) Report value only: %Inh, IKK-epsilon, Cc1occc1-c1nc(N)c(OC[C@@H](N)Cc2c[nH]c3ccccc23)cc1-c1cc2c(C)n[nH]c2cn1
A) 0
